This collection of values is drawn from PubChem BioAssay (NCI).

Test system: NCI/ADR-RES ovarian
protocol: NCI-60 one-dose screen, 48 h (100 = growth as untreated, 0 = no growth, -100 = all killed)
condition_set: 10 µM unless noted
About 83,000 compounds went through this panel and 20% of them were active in at least one assay; those are over-represented in the sample as a whole.
// returns Condition not met unless growth is strictly below 80%, in which case Condition met

Study these solved cases before continuing.
compound=Cc1ccc(C(=O)CSc2nc3ccccc3c(=O)n2C)cc1 target_system="NCI/ADR-RES ovarian" class_assignment="Condition not met"
compound=CN1c2ccccc2Sc2cc(/C=N/Nc3ccnc4cc(Cl)ccc34)ccc21 target_system="NCI/ADR-RES ovarian" class_assignment="Condition met"
compound=Clc1ccc2c(N/N=C/c3c[nH]c4ccccc34)ccnc2c1 target_system="NCI/ADR-RES ovarian" class_assignment="Condition met"
compound=Nc1nc(=O)n([C@H]2C[C@H](O)[C@@H](CO)O2)cc1C=O target_system="NCI/ADR-RES ovarian" class_assignment="Condition met"
compound=CCN(CC)c1ccc(/C=N/NC(=O)c2ccc(S(N)(=O)=O)cc2)cc1 target_system="NCI/ADR-RES ovarian" class_assignment="Condition met"
compound=COc1ccc(/C=N/NC(=O)c2c(N)nn(C)c2Nc2ccccc2)cc1 target_system="NCI/ADR-RES ovarian" class_assignment="Condition met"
compound=CNC(=O)c1cc(-n2ccc3cc(NC(=O)Nc4ccc(N5CCN(C)CC5)c(C(F)(F)F)c4)ccc32)ccn1 target_system="NCI/ADR-RES ovarian" class_assignment="Condition not met"
compound="CC[C@]12C=CCN3CC[C@]4(C(=C(C(=O)OC)C1)Nc1cc5c(cc14)[C@@H]1[C@H](O5)[C@@H](O)[C@@]4(CC)CC(C(=O)OC)=C5Nc6cc(O)ccc6[C@@]56CCN1C46)C32 (stereo partly drawn)" target_system="NCI/ADR-RES ovarian" class_assignment="Condition met"
compound=CN(C)c1ccc(-c2cc(-c3c[nH]c4ccccc34)nc(N)c2C#N)cc1 target_system="NCI/ADR-RES ovarian" class_assignment="Condition met"
compound=O=C(/C=C/c1cccc(C(F)(F)F)c1)Nc1cccc(C(F)(F)F)c1 target_system="NCI/ADR-RES ovarian" class_assignment="Condition met"

INPUT: Given the entry "Cc1[nH]c(C(=O)Nc2ccc(C(=O)NCC3CCNCC3)cc2OC(C)C)c(Cl)c1Cl" , would its reported growth be below 80%?
OUTPUT: Condition not met

INPUT: is_below(growth, 80%) for "CC(=C(c1ccc(OCCN2CCCC2)cc1)c1ccc(OCCN2CCCC2)cc1)c1ccc(Cl)cc1" ?
OUTPUT: Condition met

INPUT: Is 80% strictly greater than the compound's reported growth? compound: "COC(=O)c1cccc(NC2=C(Cl)C(=O)c3nc(C)ccc3C2=O)c1"
OUTPUT: Condition not met

INPUT: Consider "O=C1Nc2ccc(F)cc2/C1=C\C(=O)c1ccc(NS(=O)(=O)c2ccccc2)cc1" . Does its growth lie strictly below 80%?
OUTPUT: Condition not met

INPUT: Decide: growth of "COC(=O)c1ccc(NC2=C(Cl)C(=O)c3nc(C)ccc3C2=O)cc1" strictly below 80%?
OUTPUT: Condition met

INPUT: growth under 80%? Item: "Oc1[nH]c2ccc(Cl)cc2c1N=Nc1nc(N=Nc2c(O)[nH]c3ccc(Cl)cc23)nc(N2CCCCC2)n1"
OUTPUT: Condition not met

INPUT: Just wondering, is growth of "C=C(C)[C@@H]1CC[C@]2(C(=O)N3CCN(C)CC3)CC[C@]3(C)[C@H](CC[C@@H]4[C@@]5(C)CC[C@H](OP(=O)(OCC)OCC)C(C)(C)[C@@H]5CC[C@]43C)[C@@H]12" below 80%?
OUTPUT: Condition not met

INPUT: Criterion: growth strictly below 80%. Is it met by "COc1ccc(/C=N/NC(=O)c2c(N)nn(C)c2Nc2ccccc2)cc1Oc1ccccc1" ?
OUTPUT: Condition not met

====

Tested on: NCI-H522 lung
protocol: NCI-60 one-dose screen, 48 h (100 = growth as untreated, 0 = no growth, -100 = all killed)
condition_set: 10 µM unless noted
Compounds without any hit were thinned out: in the full panel of roughly 83,000, 20% have a hit.
Consider the cut-off 30%. If the recorded growth is strictly smaller, the label is Met; if not, the label is Not met.

# count of solved cases: 3
compound=Cc1ccc2c(n1)C(=O)C(Cl)=C(Nc1ccccc1C(=O)OC(C)(C)C)C2=O target_system="NCI-H522 lung" class_assignment=Met
compound=O=C(CCCCCCN1CC(=O)N2[C@@H](c3ccccc3Br)c3[nH]c4ccccc4c3C[C@H]2C1=O)NO target_system="NCI-H522 lung" class_assignment=Met
compound=C[C@H](Nc1ncnc2ccc(-c3cnc(Cl)c(NS(C)(=O)=O)c3)cc12)c1ccccc1 target_system="NCI-H522 lung" class_assignment=Met

INPUT: Determine whether this compound shows growth lower than 30% (ties excluded): "Cc1cc2nc(C(Cl)Cl)nc(-c3ccc(S(=O)(=O)N(C)C)cc3)n2n1"
OUTPUT: Not met

INPUT: Is growth of CN1CC[C@@H]2[C@@]3(C)CC[C@H](O)C(C)(C)[C@@H]3CC[C@@]2(C)[C@]2(C)CC[C@@]3(CO)CCC(C)(C)C[C@@H]3C12 (some centres not stated) strictly below 30%?
OUTPUT: Not met

INPUT: Does this compound meet the criterion growth < 30%? "COc1ccccc1N1CCN(C2=C(Cl)C(=O)c3ncccc3C2=O)CC1"
OUTPUT: Met

INPUT: Criterion: growth strictly below 30%. Is it met by "CN(C)S(=O)(=O)c1ccc(-c2nc(C(Cl)Cl)nc3cc(-c4ccccc4)nn23)cc1" ?
OUTPUT: Not met

INPUT: Hello, I'm reviewing records and need to know if growth of "COc1ccc2[nH]cc(-c3nn4cc(-c5ccncc5)nc4s3)c2c1" is below 30%. Could you check?
OUTPUT: Not met

====

System: U251 CNS
protocol: NCI-60 one-dose screen, 48 h
condition_set: 10 µM unless noted
About 83,000 compounds went through this panel and 20% of them were active in at least one assay; those are over-represented in the sample as a whole. Calls of active or inactive are those of the source. Rule for the calls: active = growth percent below 10; inactive = the rest.
Give your call using only these classes: active, inactive

compound=Cc1cc(=O)oc2cc(OCCCOc3ccc(/C=C/C(=O)Nc4ccc(Br)cc4)cc3)ccc12 class_assignment=inactive
compound=FC(F)(F)c1cc(Br)cc(-c2cc(-c3ccc4c(c3)OCCO4)[nH]n2)c1 class_assignment=inactive
compound=CN1CCN(c2ccc(Nc3nc(NCCCNS(=O)(=O)c4ccc(C(F)(F)F)cc4)c4sccc4n3)cc2)CC1 class_assignment=active
compound=NC(=O)c1ncn2c(=O)n(CCF)nnc12 class_assignment=inactive
compound="CC[C@]12CC(C(=O)OC)=C3Nc4ccccc4[C@@]34CCN(C14)[C@@H]1c3cc4c(cc3O[C@@H]1[C@H]2O)NC1=C(C(=O)OC)C[C@@]2(CC)C3N(CC[C@@]143)C[C@H]1O[C@H]12 (stereo partly drawn)" class_assignment=inactive
compound=O=C(CCCCCCN1CC(=O)N2[C@@H](C3CC3)c3[nH]c4ccccc4c3C[C@H]2C1=O)NO class_assignment=inactive
compound=CCc1nnc(NC(=O)c2cc(-c3ccc(Cl)cc3Cl)oc2C)s1 class_assignment=inactive
compound=O=C(CSc1nc2ccccc2c(=O)n1-c1ccc(S(=O)(=O)Nc2ccc(Cl)nn2)cc1)Nc1ccc(S(=O)(=O)Nc2ccc(Cl)nn2)cc1 class_assignment=inactive

Here is the next item to consider.
INPUT: So what was the verdict on "C#Cc1cc(OC)c(C(=O)Nc2ccc(F)cc2C(=O)Nc2cccc(S(=O)(=O)C(F)(F)F)c2)cn1" in this test?
OUTPUT: active

====

Test system: HCT-15 colon
protocol: NCI-60 one-dose screen, 48 h
condition_set: 10 µM unless noted
About 83,000 compounds went through this panel and 20% of them were active in at least one assay; those are over-represented in the sample as a whole. Activity calls are given as the source filed them. Rule for the calls: active = growth percent below 10; inactive = the rest.
# valid calls are active, inactive; nothing else

compound="CC(Nc1c(C#N)cnc2ccc(-c3cncc(-c4n[nH]c(=O)o4)c3)cc12)c1ccccc1 (stereo not given)" class_assignment=inactive

INPUT: Which outcome did this test record for the compound "O=S(=O)(Oc1ccc(-c2cn3ccsc3n2)cc1)c1cccc(C(F)(F)F)c1" ?
OUTPUT: inactive

INPUT: In this assay, the call recorded for "COc1ccccc1/C=C/C(=O)c1nnn(-c2ccc(F)cc2)c1C" was what?
OUTPUT: inactive

====

Test system: SF-539 CNS
protocol: NCI-60 one-dose screen, 48 h
condition_set: 10 µM unless noted
Compounds without any hit were thinned out: in the full panel of roughly 83,000, 20% have a hit. The source made the active and inactive calls. Rule for the calls: active = growth percent below 10; inactive = the rest.
Write down one outcome, taken from active, inactive

compound=NS(=O)(=O)c1nnc(/N=C/c2c(O)[nH]c3ccccc23)s1 class_assignment=inactive
compound=N#C/C(=C\c1ccc(-c2ccc(Cl)c(Cl)c2)o1)C(=O)Nc1ncc(Cc2ccc(Cl)cc2)s1 class_assignment=inactive
compound="CC[C@]12CC(C(=O)OC)=C3Nc4ccccc4[C@@]34CCN(C14)[C@@H]1c3cc4c(cc3O[C@@H]1[C@H]2O)NC1=C(C(=O)OC)C[C@@]2(CC)C3N(CC[C@@]143)C[C@H]1O[C@H]12 (some centres not stated)" class_assignment=inactive
compound=CN(C)S(=O)(=O)c1ccc(-c2nc(C(Cl)Cl)nc3cc(-c4ccccc4)nn23)cc1 class_assignment=inactive
compound=O=C1/C(=C/c2cc(F)cc(F)c2)Cc2cc3c(cc21)OCO3 class_assignment=inactive

Could you now consider this next compound?
INPUT: Recorded test outcome, item "C#C[C@]1(O)CC[C@H]2[C@@H]3CC=C4c5sc(Nc6cccc(F)c6)nc5CC[C@]4(C)[C@H]3CC[C@@]21C"
OUTPUT: active
